- System: HSkMC
- protocol description: cytotoxicity call (relative viability < 0.9)
- condition description: 10 µM
About 1,500 (3.8%) of roughly 39,000 compounds were called active. The sample holds actives, similar compounds and a random draw of the others, so the mix is not that of the screen.
readout type: cytotoxicity call

C[C@H]1CN([C@@H](C)CO)C(=O)c2cc(NS(=O)(=O)c3ccc(F)cc3)ccc2O[C@H]1CN(C)S(=O)(=O)c1cccs1    inactive
C[C@@H]1O[C@H](O[C@H]2[C@H](OC(=O)[C@]34CCC(C)(C)C[C@@H]3C3=CC[C@@H]5[C@@]6(C)CC[C@H](O[C@@H]7O[C@@H](C)[C@H](O[C@@H]8OC[C@@H](O)[C@H](O)[C@H]8O)[C@@H](O)[C@H]7O)C(C)(C)[C@@H]6CC[C@@]5(C)[C@]3(C)C[C@@H]4O)OC[C@H](O)[C@H]2O)[C@H](O)[C@H](O)[C@H]1O[C@@H]1O[C@H](CO)[C@@H](O)[C@H](O)[C@H]1O    inactive

---

- Test system: HSkMC
- protocol description: cytotoxicity call (relative viability < 0.9)
- condition description: 10 µM
The campaign covered roughly 39,000 compounds. About 1,500 (3.8%) were called active. This is one part of a sample in which actives are shown more often than they occur.
readout type: cytotoxicity call

C=CCC[C@H](Cc1ccc(F)cc1)C(=O)OC[C@@H](NC(=O)[C@H](CC=C)CC(=O)N(CCO)Cc1ccccc1)c1ccccc1    inactive
C[C@@H]1CCCCO[C@H](CN(C)CC2CCCCC2)[C@H](C)CN([C@H](C)CO)C(=O)c2cc(NC(=O)CCC(F)(F)F)ccc2O1    inactive
C=CC[C@@H](CC(=O)N(CCO)Cc1ccccc1)C(=O)N[C@H](COC(=O)[C@@H](CC=C)Cc1ccc(F)cc1)c1ccccc1    inactive

---

- Tested on: HSkMC
- protocol description: cytotoxicity call (relative viability < 0.9)
- condition description: 10 µM
The whole screen tested about 39,000 compounds, of which about 1,500 (3.8%) were called active. The sample holds actives, similar compounds and a random draw of the others, so the mix is not that of the screen.
readout type: cytotoxicity call

Here are 7 compounds together with their reported answers.
COc1ccc2c3c([nH]c2c1)[C@@H](CO)N(Cc1ccc(cc1)Cl)C[C@]13CCN(CC1)Cc1ccccc1    active
NC(=S)c1cnccn1    inactive
CC(C)C#Cc1cnc2c(c1)C(=O)N([C@H](C)CO)C[C@H](C)[C@H](CN(C)S(=O)(=O)c1cn(C)cn1)O2    inactive
C[C@H]1CN([C@@H](C)CO)C(=O)c2cccc(NS(=O)(=O)c3ccc(F)cc3)c2O[C@H]1CN(C)C(=O)Nc1ccc(C(F)(F)F)cc1    inactive
COC(=O)CNC(=O)c1ccccc1    inactive
CO[C@@H]1CN(C)C(=O)c2cc(NC(=O)Nc3ccccc3F)ccc2OC[C@@H](C)N(CCC(F)(F)F)C[C@H]1C    inactive
C[C@H](CO)N1C[C@H](C)[C@H](CN(C)C(=O)Nc2ccc(C(F)(F)F)cc2)Oc2c(NS(=O)(=O)c3ccc(Cl)cc3)cccc2C1=O    active

Here is another compound to look at.
Enquiry: Reported cytotoxicity call for C[C@@H]1CN([C@H](C)CO)C(=O)Cc2cc(NS(=O)(=O)c3ccccc3)ccc2O[C@H]1CN(C)S(=O)(=O)c1cccs1 : what is it?
Return: inactive

---

- Tested on: HSkMC
- protocol description: cytotoxicity call (relative viability < 0.9)
- condition description: 10 µM
The campaign covered roughly 39,000 compounds. About 1,500 (3.8%) were called active. The list comes from a sample in which actives are over-represented; it also holds close analogues and randomly drawn compounds.
Choose the fitting class; nothing outside active, inactive is accepted.

See these solved cases before continuing.
COc1ccc(cc1)CN1CC[C@]2(CC1)CN([C@H](CO)c1[nH]c3cc(ccc3c12)OC)C(=O)Nc1ccc(cc1)F    inactive
COc1ccc2c3c([nH]c2c1)[C@H](CO)N(C[C@]13CCN(CC1)Cc1ccc(cc1)F)C(=O)Nc1ccc(cc1)F    inactive
N[C@H]1CCN(c2ccc(C(F)(F)F)cn2)C1    inactive
COc1ccc2c3c([nH]c2c1)[C@H](CO)N(C[C@]13CCN(CC1)Cc1cc(on1)-c1ccccc1)C(=O)Nc1ccc(cc1)F    active
CC1=C2C/C=C(\C)[C@H](O[C@H]3O[C@@H](CO)[C@@H](O)[C@@H](O)[C@@H]3O)C/C=C(\C)C[C@@H]2OC1=O    inactive

Enquiry: Would you mind telling me which call this test gave COc1ccc(cc1)CN1CC[C@]2(CC1)CN([C@@H](CO)c1[nH]c3cc(ccc3c12)OC)C(=O)Nc1ccc(cc1)F ?
Return: inactive

Enquiry: Entry COc1ccc2c3c([nH]c2c1)[C@H](CO)N(C[C@]13CCN(CC1)Cc1ccccc1OC)C(=O)Nc1ccc(cc1)F please
Return: inactive

Enquiry: Entry C[C@@H](NC(=O)C[C@@H]1CC[C@H](NC(=O)CN2CCOCC2)[C@@H](CO)O1)c1ccccc1 please
Return: inactive

---

- System: HSkMC
- protocol description: cytotoxicity call (relative viability < 0.9)
- condition description: 10 µM
Among all 39,000 compounds or so, about 1,500 (3.8%) were called active. The full list was thinned out, with actives kept by preference.
Choose the fitting class; nothing outside YES (active), NO (inactive) is accepted.

See these solved cases before continuing.
Cc1noc(C)c1NC(=O)Nc1ccc2c(c1)CC(=O)N([C@H](C)CO)C[C@H](C)[C@H](CN(C)Cc1ccc(C(F)(F)F)cc1)O2    NO
C[C@@H]1CN([C@H](C)CO)C(=O)c2cc(NC(=O)Nc3cccc4ccccc34)ccc2O[C@@H]1CN(C)Cc1ccc2c(c1)OCO2    NO
C[C@@H]1CN([C@@H](C)CO)C(=O)c2cccc(NS(=O)(=O)c3ccc(F)cc3)c2O[C@H]1CN(C)S(=O)(=O)c1cccs1    NO
CC(C)(C)S(=O)N1Cc2cc(C(=O)NCc3ccc4c(c3)OCO4)nc(-c3cccc(C#CCC4CCCC4)c3)c2[C@H]1CCO (some centres not stated)    NO
O=C(O)CNC(=O)C(=O)O    YES

Enquiry: Would you mind telling me which call this test gave COc1ccc(C#Cc2cccc(-c3nc(C(=O)N[C@@H]4CCN(Cc5ccccc5)C4)cc4c3[C@H](CCO)N(S(=O)C(C)(C)C)C4)c2)cc1OC (some centres not stated) ?
Return: NO

Enquiry: Entry CC(C)(C)S(=O)N1Cc2cc(C(=O)N[C@@H]3CCN(Cc4ccccc4)C3)nc(-c3cccc(C#CCC4CCCC4)c3)c2[C@@H]1CCO (some centres not stated) please
Return: NO

---

- Tested on: HSkMC
- protocol description: cytotoxicity call (relative viability < 0.9)
- condition description: 10 µM
In all, about 39,000 compounds went through this assay and about 1,500 (3.8%) were called active. The sample as a whole holds a higher share of actives than the screen did.
readout type: cytotoxicity call

C=C(NC(=O)C(=C)NC(=O)c1csc(C2=NC3c4csc(n4)C4NC(=O)c5csc(n5)C(C(C)(O)C(C)O)NC(=O)C5CSC(=N5)C(=CC)NC(=O)C(C(C)O)NC(=O)c5csc(n5)C3(CC2)NC(=O)C(C)NC(=O)C(=C)NC(=O)C(C)NC(=O)C(C(C)CC)NC2C=Cc3c(C(C)O)cc(nc3C2O)C(=O)OC4C)n1)C(N)=O (configuration not stated)    inactive
C[C@@H]1CN([C@H](C)CO)C(=O)c2cc(NC(=O)Cc3ccccc3)ccc2O[C@@H](C)CCCCO[C@H]1CN(C)C(=O)Nc1cccc2ccccc12    inactive

---

- Test system: HSkMC (human skeletal muscle cells)
- protocol description: cytotoxicity call (relative viability < 0.9)
- condition description: 10 µM
Screen size: about 39,000 compounds; about 1,500 (3.8%) were called active. The full list was thinned out, with actives kept by preference.
Choose the fitting class; nothing outside active, inactive is accepted.

CC(=O)Oc1ccccc1C(=O)Nc1ncc([N+](=O)[O-])s1    active

Enquiry: Would you mind telling me which call this test gave Cc1noc(C)c1NC(=O)Nc1ccc2c(c1)C(=O)N([C@H](C)CO)C[C@H](C)[C@@H](CN(C)C(=O)Nc1cccc3ccccc13)OCCCC[C@H](C)O2 ?
Return: inactive

Enquiry: Entry Cc1noc(C)c1NC(=O)Nc1ccc2c(c1)C(=O)N([C@@H](C)CO)C[C@@H](C)[C@H](CN(C)C(=O)Nc1cccc3ccccc13)OCCCC[C@@H](C)O2 please
Return: active

Enquiry: Entry C[C@H](CO)N1C[C@H](C)[C@@H](CN(C)Cc2ccc(Cl)c(Cl)c2)Oc2ccc(NS(=O)(=O)c3ccc(F)cc3)cc2CC1=O please
Return: inactive

Enquiry: Entry Cc1noc(C)c1NC(=O)Nc1ccc2c(c1)C(=O)N([C@@H](C)CO)C[C@H](C)[C@@H](CN(C)C(=O)Nc1cccc3ccccc13)OCCCC[C@@H](C)O2 please
Return: inactive
